# test-protocol: Metabolic stability in mouse liver microsomes assessed as hepatic blood flow preincubated for 10 mins and measured after 60 mins by LC-MS/MS analysis
# Format: ADME, Microsome
# cond: read-out: QH
Known hepatic extraction ratio at 1 h of a selection of compounds
metric: hepatic extraction ratio at 1 h

>>> df
                                   compound                           metric  meas_value
0  COc1cc2c(N3CCCCC3)nc(NCc3ccc(Cl)cc3)nc2cc1OC1CCCC1  hepatic extraction ratio at 1 h       0.519
1  COc1cc2c(N3CCCCC3)nc(NCc3ccc(C(C)(C)C)cc3)nc2cc1OC1CCCC1  hepatic extraction ratio at 1 h       0.454
2  COc1cc2c(N3CCCCC3)nc(NCc3ccc(F)cc3)nc2cc1OC1CCCC1  hepatic extraction ratio at 1 h       0.592
3  COc1cc2c(N(C)C)nc(NCc3ccc(F)cc3)nc2cc1OC1CCCC1  hepatic extraction ratio at 1 h       0.733
4  COc1cc2c(N3CCCCC3)nc(NCc3ccc(F)cc3)nc2cc1OC1CCNC1 (stereo not given)  hepatic extraction ratio at 1 h        0.42

* * *

# test-protocol: Metabolic stability in mouse liver microsomes assessed as hepatic blood flow preincubated for 10 mins and measured after 60 mins by LC-MS/MS analysis
# Type: ADME, Microsome
# cond: read-out: QH
Returns one of YES or NO; YES when hepatic extraction ratio at 1 h is >= 0.5.

>>> df
                                item_smiles  class
0  COc1ccc(CNc2nc(N3CCCCC3)c3cc(OC)c(OCc4ccccc4)cc3n2)cc1    YES
1  CNc1nc(NCc2ccc(F)cc2)nc2cc(OC3CCCC3)c(OC)cc12    YES
2  COc1cc2c(N3CCCCC3)nc(NCC3CCCCC3)nc2cc1OC1CCCC1    YES
3  COc1cc2c(N3CCCCC3)nc(NCc3ccc(Br)cc3)nc2cc1OC1CCCC1     NO

* * *

# test-protocol: Metabolic stability in mouse liver microsomes assessed as half-life preincubated for 10 mins and measured after 60 mins by LC-MS/MS analysis
# Format: ADME, Microsome
metric: half-life (min)

In [3]: df
Out[3]:
                                   compound  meas_value
0  COc1ccc(CNc2nc(N3CCCCC3)c3cc(OC)c(OCc4ccccc4)cc3n2)cc1        15.5
1  Clc1ccc(CNc2nc(N3CCCCC3)c3cc4c(cc3n2)OCO4)cc1        10.8
2  CNc1nc(NCc2ccc(F)cc2)nc2cc(OC3CCCC3)c(OC)cc12         9.1
3  COc1cc2c(N3CCCCC3)nc(N(C)C)nc2cc1OC1CCCC1        13.7
4  COc1cc2c(N3CCCCC3)nc(NCc3ccc(F)cc3)nc2cc1OC1CCNC1 (stereo not given)        52.1

* * *

# test-protocol: Metabolic stability in mouse liver microsomes assessed as half-life preincubated for 10 mins and measured after 60 mins by LC-MS/MS analysis
# Assay type: ADME, Microsome
metric: half-life (min)

>>> df
                                item_smiles     metric  meas_value
0  COc1cc2c(N3CCCCC3)nc(NCc3ccc(C(C)(C)C)cc3)nc2cc1OC1CCCC1  half-life        22.8
1  COc1cc2c(N3CCCCC3)nc(NCc3ccc(Cl)cc3)nc2cc1OC1CCCC1  half-life        17.5
2  COc1cc2c(N3CCCCC3)nc(NCc3ccc(Br)cc3)nc2cc1OC1CCCC1  half-life        46.5
3  COc1cc2c(N3CCCCC3)nc(NCc3ccccc3)nc2cc1OC1CCCC1  half-life        19.2
4  COc1cc2c(N3CCOCC3)nc(NCc3ccc(F)cc3)nc2cc1OC1CCCC1  half-life         6.9
5  COc1cc2c(N3CCCCC3)nc(NC(=O)c3ccc(F)cc3)nc2cc1OC1CCCC1  half-life        19.4
6  COc1cc2c(N(C)C)nc(NCc3ccc(F)cc3)nc2cc1OC1CCCC1  half-life         6.9
7  COc1cc2c(N3CCCCC3)nc(NCc3ccc(F)cc3)nc2cc1OC1CCCC1  half-life          13
8  COc1cc2c(N3CCCCC3)nc(NCC3CCCCC3)nc2cc1OC1CCCC1  half-life        16.3
9  COc1cc2c(N3CCCCC3)nc(NCc3ccc(C(F)(F)F)cc3)nc2cc1OC1CCCC1  half-life        20.3
